# System: Staphylococcus aureus
# TEST PROTOCOL: Antibacterial activity against Staphylococcus aureus ATCC 29213 after 24 hrs by broth microdilution method
# Format: functional
# MEASUREMENT CONTEXT: ATCC 29213, 24 h
MEASURE NAME: MIC (µg/mL)

>>> df
                            smiles_notation  reported_relation  measured
0    c1ccc(-c2cnn(-c3ccccc3-c3ccccc3)n2)cc1                  =       128
1  Clc1cccc(-c2cnn(-c3ccccc3-c3cccc(Cl)c3)n2)c1                  =       256
2  Cc1onc(-c2ccccc2)c1C(=O)N[C@@H]1C(=O)N2[C@@H]1SC(C)(C)[C@@H]2C(=O)O                  <         1
3             c1ccc(-c2cnn(-c3ccccc3)n2)cc1                  >       256
4  Oc1ccc(-c2cnn(-c3ccccc3-c3ccc(O)cc3)n2)cc1                  =       128

====

# Tested on: MDA-MB-231
# TEST PROTOCOL: Antiproliferative activity against human MDA-MB-231 cells assessed as cell survival at 100 uM after 24 hrs by MTT assay relative to control
# Format: functional
# MEASUREMENT CONTEXT: MDA-MB-231, 24 h, read-out: Survival
// assign Criterion met if viability at 100 µM falls strictly below 90%, else Criterion not met (ties count as Criterion not met)

>>> print(df.to_string())
                             smiles_notation  assayed_system   class_assignment
 0             c1ccc(-c2cnn(-c3ccccc3)n2)cc1      MDA-MB-231      Criterion met
 1  Nc1ccc(-c2cnn(-c3ccccc3-c3ccc(N)cc3)n2)cc1      MDA-MB-231      Criterion met
 2       COc1ccc(OC)c(-c2cnn(-c3ccccc3)n2)c1      MDA-MB-231  Criterion not met
 3    c1ccc(-c2cnn(-c3ccccc3-c3ccccc3)n2)cc1      MDA-MB-231      Criterion met
 4            Oc1ccc(-c2cnn(-c3ccccc3)n2)cc1      MDA-MB-231  Criterion not met
 5            Oc1ccc(/C=C/c2cc(O)cc(O)c2)cc1      MDA-MB-231  Criterion not met
 6  COc1ccc(-c2cnn(-c3ccccc3-c3ccc(OC)cc3)n2)cc1      MDA-MB-231      Criterion met
 7               FC(F)(F)Oc1ccc(-n2nccn2)cc1      MDA-MB-231      Criterion met
 8  Oc1ccc(-c2cnn(-c3ccccc3-c3ccc(O)cc3)n2)cc1      MDA-MB-231      Criterion met
 9  Clc1cccc(-c2cnn(-c3ccccc3-c3cccc(Cl)c3)n2)c1      MDA-MB-231      Criterion met
10            Nc1ccc(-c2cnn(-c3ccccc3)n2)cc1      MDA-MB-231      Criterion met

====

# Tested on: Staphylococcus aureus
# TEST PROTOCOL: Antibacterial activity against Staphylococcus aureus ATCC 29213 after 24 hrs by broth microdilution method
# Type: functional
# MEASUREMENT CONTEXT: ATCC 29213, 24 h
MEASURE NAME: MIC (µg/mL)

>>> df
                            smiles_notation  measure_name  measured
0  COc1ccc(-c2cnn(-c3ccccc3-c3ccc(OC)cc3)n2)cc1           MIC       256
1            Oc1ccc(-c2cnn(-c3ccccc3)n2)cc1           MIC        64
2       COc1ccc(OC)c(-c2cnn(-c3ccccc3)n2)c1           MIC       128
3  Nc1ccc(-c2cnn(-c3ccccc3-c3ccc(N)cc3)n2)cc1           MIC       128
4               FC(F)(F)Oc1ccc(-n2nccn2)cc1           MIC       256
5            Nc1ccc(-c2cnn(-c3ccccc3)n2)cc1           MIC       256

Source of measurements: ChEMBL document CHEMBL3612010
